# inhibition at 10 µM values compiled below
# Tested on: Cryptosporidium parvum
# experiment-description: In vitro C. parvum growth inhibition assay (Nluc reporter strain in HCT-8 cells)
# Assay type: cell-based
# test-settings: primary screen, 10 μM compound, 48 h, three technical replicates, read-out: Mean percent inhibition of C. parvum growth
Numbers only here, please. The scale is %.

Some solved entries appear below for comparison.
>  <compound>
Clc1ccc(Nc2ncc(-c3ccccc3)s2)cc1 [Compound 10]

>  <inhibition at 10 µM, %>
95.1

$$$$
>  <compound>
COc1ccc(Nc2nccc(-c3cnn4ncccc34)n2)cc1 [Compound 2]

>  <inhibition at 10 µM, %>
92.9

$$$$
>  <compound>
Fc1cccc(COc2ccc(Nc3ncnc4c3CN(CCN3CCOCC3)CC4)cc2Cl)c1 [Compound 6]

>  <inhibition at 10 µM, %>
93.7

$$$$
>  <compound>
Cc1ccc(O)cc1Nc1ccnc(Nc2cccc(C(N)=O)c2)n1 [Compound 3]

>  <inhibition at 10 µM, %>
94.4

$$$$
>  <compound>
C[C@@H](Oc1cc(-c2cnc3ccccn23)sc1C(N)=O)c1ccccc1Cl [Compound 8]

>  <inhibition at 10 µM, %>
95

$$$$

Cryptosporidium parvum / inhibition at 10 µM / CN1CCN(c2ccc(Nc3nccc(-c4cnn5ncccc45)n3)cc2C#N)CC1 [Compound 1] : value? 95.6

Cryptosporidium parvum / inhibition at 10 µM / CC(=O)Oc1ccccc1C(=O)Nc1ncc([N+](=O)[O-])s1 [Nitazoxanide, nitazoxanide, reference compound] : value? 94.5

Cryptosporidium parvum / inhibition at 10 µM / c1ccc(COc2cccc(-c3ccnc4[nH]ccc34)c2)cc1 [Compound 9] : value? 95.2

Cryptosporidium parvum / inhibition at 10 µM / Nc1ncc2c(-c3ccncc3)c[nH]c2n1 [Compound 11] : value? 90.8

Cryptosporidium parvum / inhibition at 10 µM / COc1cc(Nc2nccc(-c3sc(N)nc3-c3cccc(NC(=O)c4c(F)cccc4F)c3)n2)cc(OC)c1OC [Compound 7] : value? 90.9

Cryptosporidium parvum / inhibition at 10 µM / Cc1ccc(O)cc1N(C)c1ccnc(Nc2cccc(S(N)(=O)=O)c2)n1 [Compound 4] : value? 95.5
